Ref: patent US8394952B2

system name: Plk1 (Homo sapiens)
Sequence (P53350 20-338): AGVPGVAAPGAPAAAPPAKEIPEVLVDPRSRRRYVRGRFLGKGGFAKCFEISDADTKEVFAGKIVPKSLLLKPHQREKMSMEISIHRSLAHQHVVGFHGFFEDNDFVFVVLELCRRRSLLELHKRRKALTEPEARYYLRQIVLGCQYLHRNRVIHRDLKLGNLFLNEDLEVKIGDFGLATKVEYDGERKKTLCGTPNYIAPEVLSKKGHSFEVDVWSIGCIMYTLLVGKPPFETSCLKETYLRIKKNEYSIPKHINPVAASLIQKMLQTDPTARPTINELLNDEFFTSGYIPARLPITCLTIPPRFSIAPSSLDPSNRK
assay notes: biochemical
experimental readout: Ki

Worked set:
COCC(=O)Nc1cccc(Nc2ncc3c(n2)N(C2CCCC2)CC(C)(C)C(=O)N3C)c1: 10 to 100 nM
COc1cc(C(=O)NC[C@@H]2CC[C@@H](O)C2)ccc1Nc1ncc2c(n1)N(C1CCCC1)CC(C)(C)C(=O)N2C: < 10 nM

Next molecule, please.
Query block: Would you kindly share the measured Ki for CCCN1CCC(NC(=O)c2ccc(Nc3ncc4c(n3)N(C3CCCC3)CC(C)(C)C(=O)N4C)c(OC)c2)CC1 ?
Result block: < 10 nM

---

Let's go through some Ki measurements on Plk1 (Homo sapiens) together.

CN1C(=O)C(C)(C)CN(C2CCCC2)c2nc(Nc3cccc(C(=O)N4CC(F)(C5CC5)C4)c3)ncc21: 10 to 100 nM
COc1cc(C(=O)NC(C)C)ccc1Nc1ncc2c(n1)N(C1CCCC1)CC(C)(C)C(=O)N2C: < 10 nM
COc1cc(C(=O)O)ccc1Nc1ncc2c(n1)N(C1CCCC1)CCC(=O)N2C: 10 to 100 nM
COc1cc(C(=O)N[C@H]2CCOC2)ccc1Nc1ncc2c(n1)N(C1CCCC1)CC(C)(C)C(=O)N2C: < 10 nM

Next compound, please.
Query block: Request: Ki, test system Plk1 (Homo sapiens), entry COc1cc(C(=O)NC2CCN(C)CC2)ccc1Nc1ncc2c(n1)N(C1CCCC1)[C@H](C)CC(=O)N2C
Result block: 10 to 100 nM
